assay: Permeability across artificial membrane by PAMPA; format: ADME; settings: read-out: permeability
parameter: Papp (×10⁻⁶ cm/s)

P. COc1cc(Nc2c(C#N)cnc3cc(NCCCN4CCN(C)CC4)c(OC)cc23)c(Cl)cc1Cl
Q. COc1cc(Nc2c(C#N)cnc3cc(NCCCN(C)C)c(OC)cc23)c(Cl)cc1Cl
// query Between the two listed entries P and Q , which has its Papp at the higher number? Returns: label corresponding to the selected item.
// result P

---

experiment: Drug level in nude mouse plasma at 50 mg/kg, po after 8 hrs; type: ADME, organism-based; parameters: dose 50 mg/kg, route oral
parameter: concentration at 8 h (ng/mL)

smiles=COc1cc(Nc2c(C#N)cnc3cc(NCCCN4CCN(C)CC4)c(OC)cc23)c(Cl)cc1Cl parameter="concentration at 8 h" observed_measurement=520
smiles=COc1cc(Nc2c(C#N)cnc3cc(NCCCN(C)C)c(OC)cc23)c(Cl)cc1Cl parameter="concentration at 8 h" observed_measurement=410

---

assay: Stability in mouse plasma after 300 mins; format: ADME, cell-free; conditions: read-out: Stability
Below: a set of entries, each annotated with reported remaining at 5 h.

smiles=COc1cc(Nc2c(C#N)cnc3cc(NCCCN(C)C)c(OC)cc23)c(Cl)cc1Cl parameter="remaining at 5 h" observed_measurement="> 70%"

Next molecule, remaining at 5 h to be filled in.
Kindly note the recorded remaining at 5 h for COc1cc(Nc2c(C#N)cnc3cc(NCCCN4CCN(C)CC4)c(OC)cc23)c(Cl)cc1Cl , which is > 70%

---

experiment: Inhibition of human cSrc-vSrc fusion protein expressed in rat fibroblast cells by ELISA; format: cell-based
parameter: IC50 (nM)
Give the value, in units of nM, as a plain number.

Use these answered entries as a reference point.
smiles=COc1cc(Nc2c(C#N)cnc3cc(NCCCN4CCOCC4)c(OC)cc23)c(Cl)cc1Cl observed_measurement=390
smiles=COc1cc(Nc2c(C#N)cnc3cc(NCCCN4CCN(C)CC4)c(OC)cc23)c(Cl)cc1Cl observed_measurement=360
smiles=COc1cc(Nc2c(C#N)cnc3cc(OCCCN4CCN(C)CC4)c(OC)cc23)c(Cl)cc1Cl observed_measurement=100
smiles=COc1cc(Nc2c(C#N)cnc3cc(NCCCN(C)C)c(OC)cc23)c(Cl)cc1Cl observed_measurement=300
smiles=COc1cc(Nc2c(C#N)cnc3cc(N(C)CCCN(C)C)c(OC)cc23)c(Cl)cc1Cl observed_measurement=2700
smiles=CCOc1cc2c(Nc3cc(OC)c(Cl)cc3Cl)c(C#N)cnc2cc1OCCOC observed_measurement=180
smiles=COc1cc(Nc2c(C#N)cnc3cc(OCCCN4CCN(C)CC4)ccc23)c(Cl)cc1Cl observed_measurement=710
smiles=COCCNc1cc2ncc(C#N)c(Nc3cc(OC)c(Cl)cc3Cl)c2cc1OC observed_measurement=1500
smiles=COCCOc1cc2ncc(C#N)c(Nc3cc(OC)c(Cl)cc3Cl)c2cc1OC observed_measurement=190
smiles=CCOc1cc2c(Nc3cc(OC)c(Cl)cc3Cl)c(C#N)cnc2cc1OCCCN1CCN(C)CC1 observed_measurement=85

Next compound, IC50 to be filled in.
Kindly note the recorded IC50 for COCCOc1ccc2c(Nc3cc(OC)c(Cl)cc3Cl)c(C#N)cnc2c1 , which is 1600
